Categorize each record by its logP using low = under 1, medium = from 1 up to 4, high = 4 and over

| Compound | Category Label |
| --- | --- |
| NCCCN1c2ccccc2Sc2ccc(Cl)cc21 | high |

Place this compound in its band: "OCc1ccc(F)cc1" medium

---

Mark True only when logP stays strictly below 1. Values equal to the cut-off are False.

The examples below pair each entry with its known result.
| Compound | Category Label |
| --- | --- |
| Clc1ccc(O[Si]23OCCN(CCO2)CCO3)cc1 | True |
| CCOC1OC2OC3(C)CCC4C(CO)CCC(C1C)C24OO3 (stereo unspecified) | False |
| CC(Oc1ccc(Oc2ccc(C(F)(F)F)cn2)cc1)C(=O)O (stereo unspecified) | False |
| O=C(NCCN1CCC(n2c(=O)[nH]c3cc(Cl)ccc32)CC1)c1ccc(F)cc1 | False |
| COc1ncnc2c1ncn2C1OC(COC(=O)c2ccccc2)C(O)C1OC(=O)c1ccccc1 (stereo unspecified) | False |
| NC(=O)NCCCn1nc(-c2ccccc2)ccc1=O | True |
| COc1c(O)cc(C)c(O)c1OC | False |
| O=C(OCCOCCOCCO)c1ccccc1 | False |
| NC(=O)CC[C@H](NS(=O)(=O)c1ccccc1)C(=O)O | True |
| Nc1ccc2c(c1)Cc1cc([N+](=O)[O-])ccc1-2 | False |

Input CCOC1OC2OC3(C)CCC4C(C)C(OC5OC(C(=O)O)C(O)C(O)C5O)CC(C1C)C24OO3 (stereo unspecified) ; condition: logP strictly below 1. Does it hold? True

---

Record form. Attribute: logD. Fill in for each entry.
conditions: pH 7.4

| Record Smiles | Obs Value |
| --- | --- |
| COc1c(C)c2c(c(O)c1C/C=C(\C)CCC(=O)OCCN1CCOCC1)C(=O)OC2 | 2.38 |

Turning to the following compound.
Which logD is listed for "N[C@@H](Cc1ccc(N(CCCl)CCCl)cc1)C(=O)O" ? -0.52

---

Record form. Attribute: solubility. Fill in for each entry.
settings: 27 °C
Give bare numbers, in mM.

| Record Smiles | Unit Spec | solubility |
| --- | --- | --- |
| Cc1c2ccccc2cc2ccc3ccccc3c12 | mM | 0.000272 |

Which solubility is listed for "NCCc1c[nH]c2ccc(O)cc12" ? 114

---

details: 27.0 °C
Record form. Attribute: log10 OH rate constant (cm³/molecule/s). Fill in for each entry.
Numbers only.

These recorded examples may help you get a feel for the data.
| Record Smiles | log10 OH rate constant (cm³/molecule/s) |
| --- | --- |
| Cc1cccc(O)c1O | -9.69 |
| O=Cc1ccco1 | -10.5 |
| Cc1ccco1 | -10.2 |
| Oc1ccccc1O | -9.98 |

Which log10 OH rate constant (cm³/molecule/s) is listed for "CCC(=O)N(C)C" ? -10.7

---

details: 25 °C
Observation Type: log10 solubility (log10 of the value in mM)
Hello, just confirming the data are log10 of solubility with units of mM.

These recorded examples may help you get a feel for the data.
| Molecule | log10 solubility |
| --- | --- |
| c1ccc2ncccc2c1 | 1.67 |
| OCCNc1ccccc1 | 2.53 |
| Brc1ccc(Br)c(-c2cc(Br)c(Br)cc2Br)c1 | -6.73 |

Each molecule below has a reported value. Please supply its log10 solubility.
1. CC(N)=S
2. Nc1ncc2ncn(COCCO)c2n1
3. FC(Cl)C(F)(F)F (configuration not stated)
4. Cc1ncc(CO)c(CN)c1O

[3.34, 1.92, 1.04, 3.47]

Each molecule below has a reported value. Please supply its log10 solubility.
1. O=C(O)CBr
2. CCCCN(CCO)CCCC
3. CCCCCCCCCCCCCCCC
4. NNC(=O)c1ccncc1
5. c1ccc(Oc2ccccc2)cc1

4.10
1.36
-5.40
3.01
-0.97

Each molecule below has a reported value. Please supply its log10 solubility.
1. CCCCCCCCCCCCCCCCCCCC
2. CCF
3. Clc1cccc(Cl)c1
4. COCC(C)OC(C)=O (configuration not stated)

1: -5.17; 2: 1.65; 3: -0.07; 4: 3.18
